Entries with reported GI50 on SK-MEL-28 (Melanoma)

Here are 2 compounds together with their reported answers.
Compound: C[C@H]1[C@H](C)CC[C@]2(CO)CC[C@]3(C)C(=CC[C@@H]4[C@@]5(C)CCCNC(C)(C)[C@@H]5CC[C@]43C)[C@H]12 [Compound 4, azepanouvaol]
Recorded result: 1750 nM
//
Compound: C=C(C)C1CCC2(CO)CCC3(C)C(CCC4C5(C)CCCNC(C)(C)C5CCC43C)C12 (stereo not drawn) [Compound 1, Azepanobetulin]
Recorded result: 1620 nM

Alright, here's another compound for you.
Ask: # query: GI50 of entry CC1(C)NCCC[C@]2(C)[C@H]3C=CC4=C5C[C@@](C)(CO)CC[C@]5(C)CC[C@@]4(C)[C@]3(C)CC[C@@H]12 [Compound 6, azepano-glycyrrhetol-diene]
Reply: 5870 nM
